# credit: patent US20070219186A1

Target: human B-Raf (Homo sapiens, UniProt P15056)
Construct: Flag; GST; made in house; host or cells: Sf9 insect cells (B-Raf); E. coli (MEK1-GST)
Sequence (P15056 whole entry): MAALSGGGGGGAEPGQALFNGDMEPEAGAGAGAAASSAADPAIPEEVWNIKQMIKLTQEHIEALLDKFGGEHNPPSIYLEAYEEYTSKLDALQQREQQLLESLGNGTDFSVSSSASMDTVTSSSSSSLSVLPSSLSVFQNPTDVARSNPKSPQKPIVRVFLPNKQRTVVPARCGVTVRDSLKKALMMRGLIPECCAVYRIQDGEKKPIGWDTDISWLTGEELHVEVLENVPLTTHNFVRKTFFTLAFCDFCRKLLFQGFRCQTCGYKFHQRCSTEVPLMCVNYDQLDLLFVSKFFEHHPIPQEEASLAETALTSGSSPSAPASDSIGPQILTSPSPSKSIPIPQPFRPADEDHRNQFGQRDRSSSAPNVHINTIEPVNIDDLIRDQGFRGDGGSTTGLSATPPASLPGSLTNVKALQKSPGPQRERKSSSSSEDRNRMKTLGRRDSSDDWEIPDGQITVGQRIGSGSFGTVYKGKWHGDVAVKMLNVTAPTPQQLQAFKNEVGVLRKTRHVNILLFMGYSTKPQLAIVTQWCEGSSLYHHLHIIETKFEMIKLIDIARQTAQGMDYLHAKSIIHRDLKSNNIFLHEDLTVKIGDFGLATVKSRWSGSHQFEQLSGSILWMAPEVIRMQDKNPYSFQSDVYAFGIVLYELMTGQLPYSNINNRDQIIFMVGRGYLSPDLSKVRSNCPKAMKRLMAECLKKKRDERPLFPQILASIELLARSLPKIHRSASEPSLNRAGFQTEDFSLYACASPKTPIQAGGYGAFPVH
Assay: B-Raf Kinase to MEK1 ELISA
Format: biochemical
Conditions: single point assay, 10 uM; read-out: % Inhib./10 uM
Method: TITLE: B-Raf Kinase to MEK1 ELISA PURPOSE: To discover B-Raf Kinase inhibitors that can inhibit growth of tumor cells which contain oncogenic forms of Receptor Tyrosine Kinases or K-Ras, or B-Raf kinase. […] B-Raf-1 is used to phosphorylate GST-MEK1. MEK1 phosphorylation is measured by a phospho-specific antibody (from Cell Signaling Technology, cat. #9121) that detects phosphorylation of two serine residues at positions 217 and 221 on MEK1. […] 11. Read plates in Wallac Victor model Plate Reader. […]
property: inhibition at 10 µM (%)

// worked examples, inhibition at 10 µM included
>  <given-smiles>
CCOC(=O)c1cnn2c(-c3cccc(NC(=O)c4cccc(OC)c4)c3)ccnc12

>  <readout-unit>
%

>  <assay-value>
28

$$$$
>  <given-smiles>
CCOC(=O)c1cnn2c(-c3cccc(NC(=O)Nc4ccc(Cl)c(C(F)(F)F)c4)c3)ccnc12

>  <readout-unit>
%

>  <assay-value>
93

$$$$
>  <given-smiles>
CCOC(=O)c1cnn2c(-c3cccc(NC(=O)Nc4ccc(C#N)c(C(F)(F)F)c4)c3)ccnc12

>  <readout-unit>
%

>  <assay-value>
85

$$$$
>  <given-smiles>
CCOC(=O)c1cnn2c(-c3cccc(NC(=O)c4ccc(C)c(C(F)(F)F)c4)c3)ccnc12

>  <readout-unit>
%

>  <assay-value>
76

$$$$
>  <given-smiles>
CN(C)CC(=O)Nc1ccc(-c2cnn3c(-c4cccc(NC(=O)c5cccc(C(F)(F)F)c5)c4)ccnc23)cc1

>  <readout-unit>
%

>  <assay-value>
93

$$$$

I = N#Cc1cnn2c(-c3cccc(NC(=O)c4cccc(C(F)(F)F)c4)c3)ccnc12
II = CCOC(=O)c1cnn2c(-c3cccc(NC(=O)c4cccc(OC(F)(F)F)c4)c3)ccnc12
[in] Kindly identify which of I and II has the larger recorded inhibition at 10 µM value. Write the label of whichever entry you select.
[out] II

P = CCOC(=O)c1cnn2c(-c3cccc(NC(=O)Nc4ccccc4C(F)(F)F)c3)ccnc12
Q = CCOC(=O)c1cnn2c(-c3cccc(NC(=O)c4cc(C(F)(F)F)ccc4C)c3)ccnc12
[in] Pick one, P or Q : lowest reported inhibition at 10 µM. Write the label of whichever entry you select.
[out] Q
